Target System: S. aureus SrtA (Staphylococcus aureus, UniProt Q2FV99)
Sequence (Q2FV99 60-206): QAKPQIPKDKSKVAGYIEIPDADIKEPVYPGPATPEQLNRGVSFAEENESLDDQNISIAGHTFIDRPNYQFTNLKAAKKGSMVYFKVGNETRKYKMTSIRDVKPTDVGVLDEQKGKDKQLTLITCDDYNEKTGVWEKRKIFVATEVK
Assay: biochemical
Test Conditions: read-out: IC50 (activity as sortase A inhibitors); 10 µM S. aureus sortase A, preincubated 1 h at 37 °C, 50 µM dabcyl-QALPETGEE-edans substrate
Endpoint Name: IC50

### Prompt What IC50 value was documented for this molecule, CCOC(=O)/C(=N\Nc1ccccc1)C(=O)c1ccccc1 ?
### Response > 500 µM

###

Test system: S. epidermidis RP62A
Assay: Interference with biofilm formation assay (safranin method)
Type: cell-based
Test Conditions: Staphylococcus epidermidis, RP62A, 24 h, 100 µM compound, 24 h at 37 °C; read-out: Percentages of Inhibition of Biofilm Formation S. epidermidis RP62A
Please note: 1.0 applies when inhibition at 100 µM is 30% or greater, and 0.0 applies otherwise.

Worked examples follow.
O=C(O)/C(=N\Nc1ccccc1)C(=O)c1ccccc1 [Compound 5g]: 0.0
CC(=O)/C(=N/Nc1ccc(C)cc1)C(=O)O [Compound 5f]: 0.0
O=C(O)/C(=N\Nc1ccc(Cl)c(Cl)c1)C(=O)c1ccccc1 [Compound 5h]: 1.0
CC(=O)/C(=N/Nc1cccc(Cl)c1)C(=O)O [Compound 5c]: 0.0
CC(=O)/C(=N/Nc1ccccc1)C(N)=O [Compound 7a]: 1.0

### Prompt Please check the record CC(=O)/C(C#N)=N/Nc1ccccc1 [Compound 6a] and state if its inhibition at 100 µM is at or above 30%.
### Response 1.0

### Prompt Could you please find out whether COc1cc(N/N=C(/C(C)=O)C(=O)O)cc(OC)c1OC [Compound 5e] has inhibition at 100 µM that meets 30% or exceeds it?
### Response 0.0

### Prompt Does the reported inhibition at 100 µM for CC(=O)/C(=N/Nc1ccc([N+](=O)[O-])cc1)C(=O)O [Compound 5d] fall at or above the 30% mark?
### Response 1.0

###

Let's look at some compounds and their measured melting point.

O=C(O)/C(=N\Nc1ccccc1)C(=O)c1ccccc1 [Compound 5g]: 136 to 138 °C
CCOC(=O)/C(=N/Nc1cc(OC)c(OC)c(OC)c1)C(C)=O [Compound 1e]: 78 to 80 °C
CCOC(=O)/C(=N/Nc1ccccc1)C(C)=O [Compound 1a]: 78 to 80 °C
CCOC(=O)/C(=N\Nc1ccc(Cl)c(Cl)c1)C(=O)c1ccccc1: 96 to 98 °C
COc1cc(N/N=C(/C(C)=O)C(=O)O)cc(OC)c1OC [Compound 5e]: 150 to 152 °C

### Prompt I'd like to know its melting point. The compound in question is O=C(O)/C(=N\Nc1ccc(Cl)c(Cl)c1)C(=O)c1ccccc1 [Compound 5h]
### Response 202 to 204 °C

### Prompt Value lookup for melting point; key = CC(=O)/C(=N/Nc1ccccc1)C(N)=O [Compound 7a]
### Response 134 to 136 °C

###

Target System: S. aureus SrtA (Staphylococcus aureus)
Assay: biochemical
Endpoint Name: IC50 (µM)
A number alone suffices; assume µM.

CC(=O)/C(=N/Nc1cccc(Cl)c1)C(=O)O: 87

### Prompt IC50 of CC(=O)/C(=N/Nc1ccccc1)C(N)=O on S. aureus SrtA (Staphylococcus aureus)?
### Response 120

### Prompt // lookup IC50 | system=S. aureus SrtA (Staphylococcus aureus) | key= CCOC(=O)/C(=N/Nc1cc(OC)c(OC)c(OC)c1)C(C)=O
### Response 110

### Prompt Record lookup: for S. aureus SrtA (Staphylococcus aureus), what IC50 belongs to COc1ccc2cc3[n+](cc2c1OC)CCc1cc2c(cc1-3)OCO2 [BC, Berberine chloride, reference compound] ?
### Response 120

### Prompt Form field - read-out: IC50; system: S. aureus SrtA (Staphylococcus aureus); submitted item: CC(=O)/C(=N/Nc1ccc([N+](=O)[O-])cc1)C(=O)O
### Response 57

### Prompt API: value(readout=IC50, system=S. aureus SrtA (Staphylococcus aureus)) for record CN(C)CCC(=O)c1ccc(Cl)c(Cl)c1 [DPDAP, reference compound]
### Response 10

### Prompt Recorded IC50 for CCOC(=O)/C(=N\Nc1ccc([N+](=O)[O-])cc1)C(C)=O with S. aureus SrtA (Staphylococcus aureus), please?
### Response 100

###

Property: IC50; scope: individual compounds
Target System: UniProt:Q2FV99
Assay: biochemical
Give a bare numeral; the unit µM is implied.

Previously resolved entries follow.
COc1cc(N/N=C(/C(C)=O)C(=O)O)cc(OC)c1OC: 92
CC(=O)/C(=N/Nc1ccc(C)cc1)C(=O)O: 100
CC(=O)/C(C#N)=N/Nc1ccccc1: 80
O=C(O)/C(=N\Nc1ccccc1)C(=O)c1ccccc1: 98
O=C(O)/C(=N\Nc1ccc(Cl)c(Cl)c1)C(=O)c1ccccc1: 100
CCOC(=O)/C(=N/Nc1ccccc1)C(C)=O: 192

### Prompt Please state recorded IC50 (tested on UniProt:Q2FV99) of CC(=O)/C(=N/Nc1ccc(Cl)c(Cl)c1)C(=O)O
### Response 50

### Prompt Can you look up IC50 on UniProt:Q2FV99 for CC(=O)/C(=N/Nc1ccccc1)C(=O)O ?
### Response 80

###

Attribute: melting point

Please review the entries below; each comes with its answer.
CCOC(=O)/C(=N\Nc1ccc([N+](=O)[O-])cc1)C(C)=O [Compound 1d]: 120 to 122 °C
CCOC(=O)/C(=N/Nc1ccc(Cl)c(Cl)c1)C(C)=O [Compound 1b]: 100 to 102 °C

Then this compound:
### Prompt Which melting point reading was recorded for the compound CCOC(=O)/C(=N/Nc1cccc(Cl)c1)C(C)=O [Compound 1c] ?
### Response 70 to 72 °C
